Outcome Measure: melting point

// below: answered molecules
- Molecule: "COc1ccc2c(c1)C(=O)c1c-2c(N2CCN(C(=O)CCNCCN(C)C)CC2)nc2ccccc12"
  melting point: "161 to 162 °C"
- Molecule: "CC12CC(=O)C3C(CCC4CC(O)CCC43C)C1CCC2C#N (stereo unspecified)"
  melting point: "190 to 192 °C"
- Molecule: "OCCCCCCCCCCCCN1CCC(CNC[C@H](O)COc2cccc3[nH]c4ccccc4c23)CC1"
  melting point: "110 °C"
- Molecule: "COCCOc1ccc(C=O)c(Oc2ncc(C(F)(F)F)cc2Cl)c1"
  melting point: "80.5 to 81 °C"
- Molecule: "CCOc1nc(C(F)(F)F)cc(=O)n1-c1cc(OC(C)C)c(Cl)cc1F"
  melting point: "101 to 103 °C"
- Molecule: "O=C(Cc1ccccc1Nc1c(Cl)cccc1Cl)OCCOCCO[N+](=O)[O-]"
  melting point: "73 °C"

Next molecule, melting point to be filled in.
Entry COCCOc1cc(C(O)C#Cc2ccc(C(=O)O)cc2)cc2c1C(C)(C)CCC2(C)C (stereo unspecified) , melting point reported as 150 °C
